- Tested on: BDF1 mice, s.c. Lewis lung carcinoma, T/C %
- assay.info: NCI In Vivo Anticancer Drug Screen. Data for tumor model Lewis Lung Carcinoma (subcutaneous) in B6D2F1 (BDF1) mice
- test.conditions: endpoint: mean tumor weight; dose: 4.0 mg/kg/injection; schedule: Q01DX011 (ip); vehicle: other; higher = larger tumour
Results filed as inconclusive are left out.
A collection of molecules and their measured T/C

molecule: O=NN(CCCl)C(=O)NCCCl
T/C: 41 % of control
//
molecule: CCCCn1cnc2c(=S)nc(N)[nH]c21
T/C: 39 % of control
//
molecule: CC(C)([NH-])CO.CC(C)([NH-])CO.[Cl][Cd][Cl]
T/C: 75 % of control
//
molecule: O=C(Nc1ccc(C2=NCCCN2)cc1)c1ccc(C(=O)Nc2ccc(C3=NCCCN3)cc2)cc1
T/C: 7 % of control
//
molecule: CCC(=O)NC1=C(N2CC2)C(=O)C(NC(=O)CC)=C(N2CC2)C1=O
T/C: 27 % of control
//
molecule: N#CCCN(Cc1ccccc1)C(N)=O
T/C: 55 % of control

Would you kindly look at the next entry?
Request the reported T/C associated with Cn1cnc([N+](=O)[O-])c1Sc1nc(N)nc2c1ncn2C1OC(CO)C(O)C1O (configuration not stated)
42 % of control

----------
- System: BDF1 mice, s.c. Lewis lung carcinoma, T/C %
- assay.info: NCI In Vivo Anticancer Drug Screen. Data for tumor model Lewis Lung Carcinoma (subcutaneous) in B6D2F1 (BDF1) mice
- test.conditions: endpoint: mean tumor weight; dose: 4.0 mg/kg/injection; schedule: Q01DX011 (ip); vehicle: saline; higher = larger tumour
Records with an inconclusive call do not appear.
property: T/C

Request the reported T/C associated with CCC1/C=C/C=C/CC(C)C(O)C(C)(O)C(=O)C(C)C(O)C(C)C(=O)C(C)C(O)C(C)/C=C/C(=O)OC2C(C)C(CC1)OC1(OC(CC(C)O)C(C)CC1=O)C2C (stereo not drawn) (tested in a mixture with another compound)
94 % of control

----------
- System: BDF1 mice, s.c. Lewis lung carcinoma, T/C %
- assay.info: NCI In Vivo Anticancer Drug Screen. Data for tumor model Lewis Lung Carcinoma (subcutaneous) in B6D2F1 (BDF1) mice
- test.conditions: endpoint: mean tumor weight; dose: 45.0 mg/kg/injection; schedule: Q01DX011 (ip); vehicle: carboxymethylcellulose (CMC); higher = larger tumour
Results filed as inconclusive are left out.
property: T/C

compound.smiles: S=C(N=Nc1ccccc1)NNc1ccccc1
T/C: 60 % of control

Field: T/C (BDF1 mice, s.c. Lewis lung carcinoma, T/C %). Entry: Cc1ccc(N2CCN(CCCN3CCN(c4ccccc4Cl)CC3)CC2)cc1
45 % of control

Field: T/C (BDF1 mice, s.c. Lewis lung carcinoma, T/C %). Entry: O=C(Nc1ccc2c(c1)Cc1cccc(NC(=O)C(Cl)Cl)c1-2)C(Cl)Cl
72 % of control

Field: T/C (BDF1 mice, s.c. Lewis lung carcinoma, T/C %). Entry: CC(C)(c1ccccc1)c1ccc(O)cc1
82 % of control

----------
- System: BDF1 mice, s.c. Lewis lung carcinoma, T/C %
- assay.info: NCI In Vivo Anticancer Drug Screen. Data for tumor model Lewis Lung Carcinoma (subcutaneous) in B6D2F1 (BDF1) mice
- test.conditions: endpoint: median survival time; dose: 50.0 mg/kg/injection; schedule: Q01DX009 (ip); vehicle: Klucel (hydroxypropylcellulose) (HPC)
- Protocol: The antitumor activity of compounds was measured in mice bearing transplantable tumors. Survival or tumor size were measured and the results are expressed as the measurement made in the treated group (T) divided by the measurement made in the vehicle treated control group (C). The tumor model used in this assay is Lewis Lung Carcinoma (subcutaneous) in B6D2F1 (BDF1) mice
Records with an inconclusive call do not appear. The calls were made as follows: active = survival T/C of 150% or more; inactive = T/C below 125% in these data.
Your answer must be one of the following: active, inactive

// below: answered compounds
compound: C1=CC2(OCCO2)C2CC=CC3(OCCO3)C2C1 (stereo not given)
class.label: inactive

compound: OC1CC2CCC(C1)N2CCCN1c2ccccc2Sc2ccc(Cl)cc21 (stereo not given)
class.label: inactive

compound: CC(=O)O[C@]1(C(C)=O)CC[C@H]2[C@@H]3C[C@H](C)C4=CC(=O)CC[C@]4(C)[C@H]3CC[C@@]21C
class.label: active

compound: CCCCCC[C@H]([C@H](C)O)n1cnc2c(N)ncnc21
class.label: inactive

compound: Nc1ncc(CNc2ccc(C(=O)NC(CCC(=O)O)C(=O)O)cc2)c(N)n1 (stereo not given)
class.label: inactive

compound: Cc1cc(N(CCCl)CCCl)ccc1C=Nc1cccnc1
class.label: inactive

compound: COc1ccc(OCC(O)CN2CCN(c3ccc(Cl)cc3)CC2)cc1 (stereo not given)
class.label: inactive

compound: O=[N+]([O-])c1ccc(Cl)c2c([N+](=O)[O-])cccc12
class.label: inactive

compound: O=NN(CCCl)C(=O)Nc1ccc2c3c(cccc13)-c1ccccc1-2
class.label: inactive

compound: C=C1C(=O)OC2CC(C)C3(O)CCC(C)(CC(OC(=O)C(C)C)C12)O3 (stereo not given)
class.label: inactive

Outcome? CC1(c2ccc(N(CCCl)CCCl)cc2)NC(=O)NC1=O (stereo not given)
inactive

Outcome? COc1cc(O)c2c(c1)C(=O)c1cc3c(c(O)c1C2=O)C(O)C(OC)C(C)(O)C3=O (stereo not given)
inactive

Outcome? CSc1ccc(NC(=O)N(CCCl)N=O)cc1
inactive

Outcome? COc1cc2c(cc1Oc1c(Oc3c(O)c(OC)cc4c3C(CC(C)C)N(C)CC4)c(OC)cc3c1C(CC(C)C)N(C)CC3)C(CC(C)C)N(C)CC2 (stereo not given)
inactive

Outcome? CCN(CC)CCCC(C)Nc1c2ccc(Cl)cc2nc2cc(Cl)ccc12 (stereo not given)
inactive

Outcome? Nc1ccc2ccccc2c1N=Nc1ccccc1
inactive

Outcome? O=NN(CCCl)C(=O)Nc1ccc(I)cc1
inactive

Sourced from PubChem BioAssay AID270
